For each entry below, report its inhibition at 1 µM value.
target entity: human recombinant adrenergic α2A receptor (Homo sapiens, UniProt P08913)
Construct: expressed in transfected cells; host or cells: insect Sf9 cells
Sequence (P08913 whole entry): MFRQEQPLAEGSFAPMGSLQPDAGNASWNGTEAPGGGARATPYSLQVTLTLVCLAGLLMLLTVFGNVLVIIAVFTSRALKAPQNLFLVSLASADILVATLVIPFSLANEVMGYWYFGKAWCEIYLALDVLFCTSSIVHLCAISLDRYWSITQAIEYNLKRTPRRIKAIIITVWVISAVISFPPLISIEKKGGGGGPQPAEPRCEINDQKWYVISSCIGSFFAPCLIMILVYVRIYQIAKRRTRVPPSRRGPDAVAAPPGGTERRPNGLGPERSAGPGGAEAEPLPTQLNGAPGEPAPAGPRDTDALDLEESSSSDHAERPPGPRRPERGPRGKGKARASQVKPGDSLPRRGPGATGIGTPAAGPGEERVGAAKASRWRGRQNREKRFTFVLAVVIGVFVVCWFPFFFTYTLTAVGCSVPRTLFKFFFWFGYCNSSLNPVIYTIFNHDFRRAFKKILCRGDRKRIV
protocol description: Adrenergic α2A radioligand binding ([3H]MK-912)
measurement context: percent inhibition of specific binding; compound at 1 μM; read-out: Inhibition of ligand binding, Adrenergic α2A
All answers are understood in %, so give the number only.

Specify inhibition at 1 µM for C/C(=C\n1c2c(c3cc(Cl)ccc31)CN(C)CC2)c1ccccc1F [Compound 213] , system human recombinant adrenergic α2A receptor (Homo sapiens, UniProt P08913).
88

Give inhibition at 1 µM only, for Cc1ccc2c(c1)c1c(n2CC(O)c2cccnc2)CCN(C)C1 (stereo not drawn) [Compound 54] , using human recombinant adrenergic α2A receptor (Homo sapiens, UniProt P08913) data.
39

Provide the reported inhibition at 1 µM (system: human recombinant adrenergic α2A receptor (Homo sapiens, UniProt P08913)) for CN1CCc2c(c3cc(Cl)ccc3n2CC(C)(O)c2ccncc2)C1 (stereo not drawn) [Compound 63]
74

Report inhibition at 1 µM on human recombinant adrenergic α2A receptor (Homo sapiens, UniProt P08913) for this entry: C/C(=C\n1c2c(c3ccccc31)CN(C)CC2)c1ccc(F)cc1 [Compound 205]
99

State recorded inhibition at 1 µM with human recombinant adrenergic α2A receptor (Homo sapiens, UniProt P08913), entry CCN1CCc2c(c3cc(C)ccc3n2CC(O)c2ccc(C)cc2)C1 (racemic) [Compound 51] , no comment.
91

Write inhibition at 1 µM of Cc1ccc(/C=C/Cn2c3c(c4cc(Cl)ccc42)CN(C)CC3)cn1 [Compound 125] ; system used: human recombinant adrenergic α2A receptor (Homo sapiens, UniProt P08913)
76

Enter measured inhibition at 1 µM, system human recombinant adrenergic α2A receptor (Homo sapiens, UniProt P08913), for the compound shown: C/C(=C\n1c2c(c3cc(Cl)ccc31)CN(C)CC2)c1ccncc1 [Compound 90]
95

For human recombinant adrenergic α2A receptor (Homo sapiens, UniProt P08913), give the measured inhibition at 1 µM of the entry Cc1ccc2c(c1)c1c(n2/C=C/c2ccccc2)CCN(C)C1 [Compound 202]
98

State the measured inhibition at 1 µM (human recombinant adrenergic α2A receptor (Homo sapiens, UniProt P08913)) of C=C(Cn1c2c(c3cc(Cl)ccc31)CN(C)CC2)c1ccc(OC)c(F)c1 [Compound 140]
86
